Biological target: Notum (Homo sapiens, UniProt Q6P988, C330S)
Sequence (Q6P988 81-451 C330S): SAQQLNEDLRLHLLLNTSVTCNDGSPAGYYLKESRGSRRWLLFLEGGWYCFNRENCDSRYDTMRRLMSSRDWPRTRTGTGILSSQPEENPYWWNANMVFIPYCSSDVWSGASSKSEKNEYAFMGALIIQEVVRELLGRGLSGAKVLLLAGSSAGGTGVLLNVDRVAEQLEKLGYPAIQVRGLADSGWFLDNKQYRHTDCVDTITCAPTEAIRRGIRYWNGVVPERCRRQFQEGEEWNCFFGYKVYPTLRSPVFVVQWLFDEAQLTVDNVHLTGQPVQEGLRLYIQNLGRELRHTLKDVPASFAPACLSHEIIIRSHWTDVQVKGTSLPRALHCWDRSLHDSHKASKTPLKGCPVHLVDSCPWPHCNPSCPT
Conditions: supplementary CSV
measure: LE

• COC(=O)COc1ccc(C#N)cc1 = 0.34
• c1cc2c(cc1CNC[C@H]1CCCO1)OCO2 = 0.25
• N#Cc1ccc(Cn2cnc3ccccc32)cc1 = 0.25
• Cc1ccc(C)c(OC(=O)c2ccncc2)c1 = 0.37
• CCOc1cccc(-c2nnc(N)s2)c1 = 0.38
• c1cnc(Oc2ccc(-c3cc[nH]n3)cc2)nc1 [compound 5, 2-[4-(1H-Pyrazol-3-yl)phenoxy]pyrimidine] = 0.25
• O=C(NCCc1ccc(O)cc1)c1ccccn1 = 0.24
• NNC(=O)c1ccccc1OCc1ccccc1 = 0.27
• C[C@@H](Oc1ccc(-c2ccccc2)cc1)C(=O)O = 0.29
• Cn1nc(O)cc1Nc1ccccc1 = 0.33
